- Tested on: Ruminococcus gnavus DSM 108212
- ASSAY PROTOCOL: fold change of Tryptamine concentration vs plate DMSO controls (fold change (ratio)); higher = more amine produced, active = hit call of the paper (significant change in both replicates, either direction)
- EXPERIMENTAL CONDITIONS: incubation time: 27 h, anaerobic, 37 °C
Counter-ions that a name gives are not always drawn.
ASSAY READOUT: fold change of Tryptamine concentration
Enter the number alone.

Before answering, review these 5 worked examples.
| COMPOUND | STUDY TARGET | fold change of Tryptamine concentration |
| --- | --- | --- |
| CCCCOc1ccc(CC(=O)NO)cc1 [Bufexamac] (20 µM) | Ruminococcus gnavus DSM 108212 | 1.02 |
| C[C@H](N)[C@H](O)c1cccc(O)c1 [Metaraminol bitartrate] (20 µM) | Ruminococcus gnavus DSM 108212 | 1.08 |
| CN1CCC(=C2c3ccccc3CCc3cccnc32)CC1 [Azatadine maleate] (20 µM) | Ruminococcus gnavus DSM 108212 | 1.01 |
| CC(C)(C)C(O)/C=C/c1ccc2c(c1)OCO2 (stereo unspecified) [Stiripentol] (20 µM) | Ruminococcus gnavus DSM 108212 | 1.04 |
| CCOC(=O)[C@H](CCc1ccccc1)N[C@H]1CS[C@H](c2cccs2)CN(CC(=O)O)C1=O [Temocapril hydrochloride] (20 µM) | Ruminococcus gnavus DSM 108212 | 0.991 |

Problem: Read the entry NC[C@H]1O[C@H](O[C@H]2[C@H](O[C@@H]3O[C@H](CO)[C@@H](O)[C@H]3O)[C@@H](O)[C@H](N)C[C@@H]2N)[C@H](N)[C@@H](O)[C@@H]1O [Ribostamycin sulfate salt] (20 µM) and write its reported fold change of Tryptamine concentration.
Solution: 0.996

Problem: Read the entry CO/N=C(\C(=O)N[C@@H]1C(=O)N2C(C(=O)OCOC(=O)C(C)(C)C)=C(/C=C\c3scnc3C)CS[C@H]12)c1csc(N)n1 [Cefditoren Pivoxil] (20 µM) and write its reported fold change of Tryptamine concentration.
Solution: 1

Problem: Read the entry CC(C)NCC(O)COc1cccc2[nH]c3ccccc3c12 (stereo unspecified) [Carazolol] (20 µM) and write its reported fold change of Tryptamine concentration.
Solution: 1.07

Problem: Read the entry CCn1cc(C(=O)O)c(=O)c2cnc(N3CCNCC3)nc21 [Pipemidic acid] (20 µM) and write its reported fold change of Tryptamine concentration.
Solution: 0.93

Problem: Read the entry OC[C@H]1OC(O)[C@H](O)[C@@H](O)[C@@H]1O (stereo partly specified) [Glucose/Dextrose] (50 µM) and write its reported fold change of Tryptamine concentration.
Solution: 0.971

Problem: Read the entry Cc1cc(-n2c(=O)[nH]c(=O)n(C)c2=O)ccc1Oc1ccc(SC(F)(F)F)cc1 [Toltrazuril] (20 µM) and write its reported fold change of Tryptamine concentration.
Solution: 0.792

Problem: Read the entry Brc1c(NC2=NCCN2)ccc2nccnc12 [Brimonidine L-tartrate] (20 µM) and write its reported fold change of Tryptamine concentration.
Solution: 0.885

Problem: Read the entry N[C@@H]1CONC1=O [D-cycloserine] (20 µM) and write its reported fold change of Tryptamine concentration.
Solution: 0.931

Problem: Read the entry C[C@H]1C[C@@H]2[C@H]([C@@H](O)C[C@@]3(C)[C@H]2CC[C@]3(O)C(=O)CO)[C@@]2(C)C=CC(=O)C=C12 [Methylprednisolone, 6-alpha] (20 µM) and write its reported fold change of Tryptamine concentration.
Solution: 1.01

Problem: Read the entry NS(=O)(=O)Cc1noc2ccccc12 [Zonisamide] (20 µM) and write its reported fold change of Tryptamine concentration.
Solution: 0.863

Problem: Read the entry CCCCOC(=O)c1ccc(O)cc1 [Butylparaben] (20 µM) and write its reported fold change of Tryptamine concentration.
Solution: 0.964
